For each of the compounds below, state its log10 TGI.
tested on: MDA-MB-231 breast; assay: NCI tumour cell line growth inhibition, 48 h
A value of 2 here means TGI of 100 in µM, since values are log10.

Query for MDA-MB-231 breast: what log10 TGI does the record show for CCN(CC)c1ccc(/C=C/c2ccc3cc(C)ccc3[n+]2CC)cc1 ?
0.33

Query for MDA-MB-231 breast: what log10 TGI does the record show for CCCn1cnc2c(SCc3ccccc3Cl)nc(N)nc21 ?
1.47

Query for MDA-MB-231 breast: what log10 TGI does the record show for CC/C(=C(/c1ccc(O)cc1)c1ccc(OCCNC)cc1)c1ccccc1 ?
0.49

Query for MDA-MB-231 breast: what log10 TGI does the record show for Nc1c(C(=O)c2ccc(Cl)cc2)[nH]c(NCc2ccccc2)c1C(=S)Nc1ccccc1 ?
0.59

Query for MDA-MB-231 breast: what log10 TGI does the record show for FC(F)(F)c1ccc2nc3n(c2c1)C(c1c(Cl)cccc1Cl)SC3 (configuration not stated) ?
1.58

Query for MDA-MB-231 breast: what log10 TGI does the record show for COc1ccc2c(c1)CN1C(=N2)CSC1c1ccccc1Cl (configuration not stated) ?
1.83

Query for MDA-MB-231 breast: what log10 TGI does the record show for CN1C(=O)C2(Cc3cn(C45CC67SSC(CO)(C(=O)N6C4Nc4ccccc45)N(C)C7=O)c4ccccc34)SSC1(CO)C(=O)N2C (configuration not stated) ?
-1.31

Query for MDA-MB-231 breast: what log10 TGI does the record show for O=c1[nH]ncc(Br)c1Br ?
0.55

Query for MDA-MB-231 breast: what log10 TGI does the record show for C=CCCCCCCCCC(=O)[O][Sn]([CH2]CCC)([CH2]CCC)[CH2]CCC ?
-0.52

Query for MDA-MB-231 breast: what log10 TGI does the record show for CN1CCN(C(=O)OCc2nc3c(N4CCOCC4)nc(Cl)nc3n2C)CC1 ?
0.35

###

test system: ACHN renal; assay: NCI tumour cell line growth inhibition, 48 h
Where a SMILES comes first, the peptide text is derived from it. The star is where a group is joined. Cbz = O=C(OCc1ccccc1)*; NHNH2 = NN*
Quantity Name: TGI

If you can, please state the reported TGI value of CC(=O)OCC(OC(C)=O)C1C[C@H]2O[C@@H]3[C@H](C[C@H]2O1)O[C@@]1(C[C@@H]3C)C[C@H](C)[C@@H]2O[C@]3(C[C@@H]2O1)C[C@H]1O[C@H]2[C@H](C)[C@H]4OC(=O)CC5CC[C@H]6OC7[C@H]8O[C@]9(CC[C@H]%10CC(O)(CO)[C@H](CC[C@H]%11C[C@@H](C)C(O)(CO)C(C[C@@H]4O[C@H]2C[C@H]1O3)O%11)O%10)CC8O[C@@H]7[C@@H](O9)[C@H]6O5 (some centres undefined) .
> 1 µM

If you can, please state the reported TGI value of OCC(O)CC[CH2][Sn]([Br])([c]1ccccc1)[c]1ccccc1 (centres undefined) .
> 100 µM

If you can, please state the reported TGI value of COC(=O)CC(NC(=O)OCc1ccccc1)C(=O)NC(CC(=O)OC)C(=O)NC(CC(=O)OC)C(=O)NC(CC(=O)OC)C(=O)NC(CC(=O)OC)C(=O)NC(CC(=O)OC)C(=O)NN (centres undefined) (Cbz-D(OMe)D(OMe)D(OMe)D(OMe)D(OMe)D(OMe)-NHNH2; configuration not given here) .
> 100 µM

If you can, please state the reported TGI value of O=C(N/N=C/c1cc(Br)cc(Br)c1[O-])c1ccccc1O.O=C(N/N=C/c1cc(Br)cc(Br)c1[O-])c1ccccc1O.[Fe+2] .
21.1 µM

Provenance of the data: PubChem BioAssay (NCI)
